Biological target: recombinant purified hTau-P301L (human) (UniProt P10636)
Sequence (P10636 other isoform, or with tags, fused parts or gaps P301L P301L): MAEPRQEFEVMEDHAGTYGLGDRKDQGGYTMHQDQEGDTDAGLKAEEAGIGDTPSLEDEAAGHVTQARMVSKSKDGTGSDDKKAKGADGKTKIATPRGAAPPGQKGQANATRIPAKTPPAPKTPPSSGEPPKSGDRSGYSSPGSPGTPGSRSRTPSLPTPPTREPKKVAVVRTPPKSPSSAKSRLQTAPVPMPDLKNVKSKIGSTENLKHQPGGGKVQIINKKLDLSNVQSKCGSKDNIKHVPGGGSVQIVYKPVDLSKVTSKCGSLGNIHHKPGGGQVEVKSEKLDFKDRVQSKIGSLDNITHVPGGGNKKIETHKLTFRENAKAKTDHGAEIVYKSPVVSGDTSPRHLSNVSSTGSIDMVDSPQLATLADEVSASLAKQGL
Experiment: SPR (Biacore T200), antibody held by a capture antibody on a CM5 chip, hTau-P301L as analyte
READOUT KIND: kon
Respond with the figure and its unit, in that order.

Some solved cases for reference:
- humanized 16B5, version H2L2 (antibody, V domains shown) VH: EVQLVQSGSELKKPGASVKVSCKASGYPFTYHGMDWVRQAPGQGLEWMGWINTYSGVPTYADDFKGRFVFSLDTSVSTAYLQISSLKAEDTAVYFCARRRDFTMDFWGQGTTVTVSS VL: NIVLTQSPDSLAVSLGERATINCKSSQSLLNSRTRKNYLAWFQQKPGQSPKLLIYWASTRESGVPDRFSGSGSGTDFTLTISSLQAEDVAVYYCKQSYTLRTFGGGTKVEIKR: 4.85e+07 M⁻¹ s⁻¹
- humanized 16B5, version H2L4 (antibody, V domains shown) VH: EVQLVQSGSELKKPGASVKVSCKASGYPFTYHGMDWVRQAPGQGLEWMGWINTYSGVPTYADDFKGRFVFSLDTSVSTAYLQISSLKAEDTAVYFCARRRDFTMDFWGQGTTVTVSS VL: NIVLTQSPSSLAVSLGERATINCKSSQSLLNSRTRKNYLAWFQQKPGQSPKLLIYWASTRESGVPDRFSGSGSGTDFTLTISSLQAEDVAVYYCKQSYTLRTFGGGTKVEIKR: 4.34e+07 M⁻¹ s⁻¹
- humanized 16B5, version H1L4 (antibody, V domains shown) VH: QVQLVQSGSELKKPGASVKVSCKASGYPFTYHGMDWVRQAPGQGLEWMGWINTYSGVPTYADDFKGRFVFSLDTSVSTAYLQISSLKAEDTAVYFCARRRDFTMDFWGQGTTVTVSS VL: NIVLTQSPSSLAVSLGERATINCKSSQSLLNSRTRKNYLAWFQQKPGQSPKLLIYWASTRESGVPDRFSGSGSGTDFTLTISSLQAEDVAVYYCKQSYTLRTFGGGTKVEIKR: 4.36e+07 M⁻¹ s⁻¹

Now examine the next entry.
In: Name the recorded kon of the binder listed here: humanized 16B5, version H1L2 (antibody, V domains shown) VH: QVQLVQSGSELKKPGASVKVSCKASGYPFTYHGMDWVRQAPGQGLEWMGWINTYSGVPTYADDFKGRFVFSLDTSVSTAYLQISSLKAEDTAVYFCARRRDFTMDFWGQGTTVTVSS VL: NIVLTQSPDSLAVSLGERATINCKSSQSLLNSRTRKNYLAWFQQKPGQSPKLLIYWASTRESGVPDRFSGSGSGTDFTLTISSLQAEDVAVYYCKQSYTLRTFGGGTKVEIKR
Out: 4.47e+07 M⁻¹ s⁻¹
